system: tuftsin receptor (human)
protocol: competition with trace 99mTc-labeled peptide on formalin-fixed human PMN leukocytes
experimentalEndpoint: pIC50
// pIC50 is dimensionless: -log10 of concentration (M)

Ask: Using the record for TKPR [natural tuftsin Thr-Lys-Pro-Arg] , report its pIC50.
Result: 7.00
